- measured.target: RanGTP-importin-beta complex (human Ran / KPNB1)
- assay: disruptors of RanGTP/KPNB1 binding – biochemical, FRET, CFP/YFP, cell-free homogeneous, confirmation (AID 2823)
- measurement.conditions: CFP-Ran/YFP-importin-beta FRET ratio
The source made the active and inactive calls. No rule for the calls is given here.
Possible outcomes: 1 (yes) for active, 0 (no) for inactive

[
  {
    "compound": "CCOC(=O)c1c(/N=C/c2ccc(C)cc2O)sc2c1CCN(C)C2",
    "assigned.label": "0 (no)"
  },
  {
    "compound": "Cc1c(CC(=O)N2CCN(C(=O)C3COc4ccccc4O3)CC2)c(=O)oc2cc(O)c(Cl)cc12 (stereo not drawn)",
    "assigned.label": "1 (yes)"
  },
  {
    "compound": "Cc1c(NC2=CC(=O)CCC2)c(=O)n(-c2ccccc2)n1C",
    "assigned.label": "0 (no)"
  },
  {
    "compound": "CCOCCCNC(=O)NC(=O)CN1CCN(S(=O)(=O)c2ccc3c(c2)OCCO3)CC1",
    "assigned.label": "0 (no)"
  },
  {
    "compound": "O=C(Nc1cnc2ccccc2c1)c1cccc(-n2cnnn2)c1",
    "assigned.label": "0 (no)"
  },
  {
    "compound": "COc1ccccc1CNC(=O)Cn1ccsc1=N",
    "assigned.label": "0 (no)"
  },
  {
    "compound": "O=C1NC(=O)N(Cc2ccccc2)C(=O)/C1=C\\N1CCCc2ccccc21",
    "assigned.label": "0 (no)"
  },
  {
    "compound": "CN(C)/C=C/C(=O)/C=C/c1ccc(Cl)cc1",
    "assigned.label": "0 (no)"
  },
  {
    "compound": "COCCNC(=O)/C(C#N)=C/c1c(N2CCN(c3ccc(OC)cc3)CC2)nc2c(C)cccn2c1=O",
    "assigned.label": "1 (yes)"
  },
  {
    "compound": "CCOc1ccc(C2C(C(=O)OC)=CN(CCOC)C=C2C(=O)OC)cc1",
    "assigned.label": "1 (yes)"
  },
  {
    "compound": "Cc1ccc(-c2ccc(/C=C(\\C#N)C(N)=S)n2C)cc1",
    "assigned.label": "0 (no)"
  },
  {
    "compound": "COCC(C)OC(=O)c1c(N)n(CC(C)C)c2nc3ccccc3nc12 (stereo not drawn)",
    "assigned.label": "1 (yes)"
  },
  {
    "compound": "CCOCCCNC(=O)/C(C#N)=C/c1cc(Br)c(O)c(Br)c1",
    "assigned.label": "1 (yes)"
  },
  {
    "compound": "Cc1c(C#N)c(NC(=O)CCl)n(Cc2ccccc2)c1C",
    "assigned.label": "0 (no)"
  },
  {
    "compound": "Cc1cc(C)c2c(c1)/C(=c1/sc3n(c1=O)CN(c1ccccc1)CN=3)C(=O)N2",
    "assigned.label": "0 (no)"
  },
  {
    "compound": "COc1cc(C(=O)NCCNc2nc3cc(C)ccc3cc2C#N)cc(OC)c1OC",
    "assigned.label": "1 (yes)"
  },
  {
    "compound": "CC(C)NC(=O)NC(=O)COC(=O)c1ccccc1O",
    "assigned.label": "0 (no)"
  },
  {
    "compound": "Cc1ccccc1-n1nc2c(c1NC(=O)c1cc3ccccc3oc1=O)CS(=O)(=O)C2",
    "assigned.label": "0 (no)"
  },
  {
    "compound": "CC(C)(C)Nc1nc(SCC(=O)Nc2ccccc2)nc(N2CCOCC2)n1",
    "assigned.label": "0 (no)"
  },
  {
    "compound": "CCN(CC)S(=O)(=O)c1ccc(NC(=O)c2ccc(Sc3nncn3C)c([N+](=O)[O-])c2)cc1",
    "assigned.label": "0 (no)"
  },
  {
    "compound": "CCCCn1c(N)c(N(CCOC)C(=O)CN2c3ccccc3CC2C)c(=O)[nH]c1=O (stereo not drawn)",
    "assigned.label": "0 (no)"
  },
  {
    "compound": "C#CCOc1ccc(C2C3=C(CC(C)(C)CC3=O)N(CC(=O)O)C3=C2C(=O)CC(C)(C)C3)cc1OC",
    "assigned.label": "1 (yes)"
  },
  {
    "compound": "CC(C)Sc1nc(N2CCOCC2)c2c3c(sc2n1)COC(C)(C)C3",
    "assigned.label": "0 (no)"
  },
  {
    "compound": "CCOC(=O)c1ccc(NC(=O)CSc2nc(C)nc3c2c(=O)n(C)c(=O)n3C)cc1",
    "assigned.label": "0 (no)"
  },
  {
    "compound": "NC(=O)N/N=C/c1ccccc1OC(=O)c1cc2ccccc2oc1=O",
    "assigned.label": "0 (no)"
  },
  {
    "compound": "Cc1ccccc1NC(=O)/C(C#N)=C\\c1cn(CC(=O)O)c2ccccc12",
    "assigned.label": "1 (yes)"
  },
  {
    "compound": "Cc1ccc(S(=O)(=O)/C(C#N)=C/c2c(N3CCC(C(N)=O)CC3)nc3ccccn3c2=O)cc1",
    "assigned.label": "0 (no)"
  },
  {
    "compound": "Cc1sc2ncn(CC(=O)NCCCC(=O)N3CCN(Cc4ccc5c(c4)OCO5)CC3)c(=O)c2c1C",
    "assigned.label": "0 (no)"
  },
  {
    "compound": "COc1ccc(-n2c(C)cc(/C=C3/SC(=S)N(C)C3=O)c2C)cc1",
    "assigned.label": "0 (no)"
  },
  {
    "compound": "Cc1ccc2cc(CN(CC3CCCO3)C(=S)Nc3ccccc3)c(=O)[nH]c2c1C (stereo not drawn)",
    "assigned.label": "0 (no)"
  },
  {
    "compound": "CCc1ccccc1N(CC(=O)NCc1ccco1)C(=O)CCC(=O)Nc1nccs1",
    "assigned.label": "0 (no)"
  },
  {
    "compound": "Cn1c(=O)c2c(ncn2CCOc2ccc(F)cc2)n(C)c1=O",
    "assigned.label": "0 (no)"
  },
  {
    "compound": "CCN1C2=C(C(=O)CCC2)C(c2ccc(O)c(Br)c2)C2=C1CCCC2=O",
    "assigned.label": "1 (yes)"
  },
  {
    "compound": "C=CCN1C=CC(=CC=C(C#N)C#N)C=C1",
    "assigned.label": "1 (yes)"
  },
  {
    "compound": "CCOC(=O)N1CCN(c2cc(=O)n(Cc3ccc(F)cc3)c(=O)[nH]2)CC1",
    "assigned.label": "0 (no)"
  },
  {
    "compound": "COc1ccc2cc(C(=O)N/N=C/c3sc4ccccc4c3O)ccc2c1",
    "assigned.label": "0 (no)"
  },
  {
    "compound": "CCCNS(=O)(=O)c1ccc2c(c1)CCCN2C(C)=O",
    "assigned.label": "0 (no)"
  },
  {
    "compound": "Cc1ccc(-c2c(C#N)c(N)nc3c2CCCC3)s1",
    "assigned.label": "1 (yes)"
  },
  {
    "compound": "O=C(Oc1c(Br)cc(C(=S)N2CCOCC2)cc1Br)c1ccc(Cl)cc1",
    "assigned.label": "0 (no)"
  },
  {
    "compound": "COc1ccc(OC)c(S(=O)(=O)n2ccnc2C)c1",
    "assigned.label": "0 (no)"
  },
  {
    "compound": "N=c1c(S(=O)(=O)c2ccc(Br)cc2)cc2c(=O)n3ccccc3nc2n1C1CCCCC1",
    "assigned.label": "0 (no)"
  },
  {
    "compound": "Cc1ccc(S(=O)(=O)NC(C(=O)Oc2ccc3ccc(=O)oc3c2)c2ccccc2)cc1 (stereo not drawn)",
    "assigned.label": "1 (yes)"
  },
  {
    "compound": "CC(=O)O/N=C/c1c(Cl)n(C)c2ccccc12",
    "assigned.label": "0 (no)"
  }
]
